# target entity: Growth hormone secretagogue receptor type 1 (Homo sapiens)
# Sequence (Q92847 whole entry): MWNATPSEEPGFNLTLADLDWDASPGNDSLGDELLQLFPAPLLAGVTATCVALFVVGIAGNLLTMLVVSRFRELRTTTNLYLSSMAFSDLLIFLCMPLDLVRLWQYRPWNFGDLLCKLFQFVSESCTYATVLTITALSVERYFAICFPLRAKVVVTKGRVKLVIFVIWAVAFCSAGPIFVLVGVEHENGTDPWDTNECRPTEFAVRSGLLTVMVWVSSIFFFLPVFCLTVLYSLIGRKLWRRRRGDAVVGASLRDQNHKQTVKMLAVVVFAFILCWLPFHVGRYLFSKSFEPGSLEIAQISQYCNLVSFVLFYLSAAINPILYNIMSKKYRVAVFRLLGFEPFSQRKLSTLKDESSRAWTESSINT
# procedure text: Agonist activity at ghrelin receptor
pKi: −log10 of the molar value.
quantity kind: pKi

{"smiles code": "CC[C@H](C)[C@@H]1NCCOc2ccccc2CCCNC(=O)[C@@H](Cc2ccccc2)NC(=O)[C@@H](C)N(C)C1=O", "target entity": "Growth hormone secretagogue receptor type 1 (Homo sapiens)", "assay value": 8.22}
{"smiles code": "CC[C@H](C)[C@@H]1NCCOc2ccccc2CCCNC(=O)[C@@H](Cc2ccc(Cl)cc2)NC(=O)[C@@H](C)N(C)C1=O", "target entity": "Growth hormone secretagogue receptor type 1 (Homo sapiens)", "assay value": 9.00}
{"smiles code": "CC[C@H](C)[C@@H]1NCCOc2ccccc2CCCNC(=O)[C@@H](Cc2ccccc2)NC(=O)[C@H](CO)N(C)C1=O", "target entity": "Growth hormone secretagogue receptor type 1 (Homo sapiens)", "assay value": 7.00}
